# study.target: Ubiquitin carboxyl-terminal hydrolase 17-like protein 5 (Homo sapiens) (UniProt A8MUK1)
# Sequence (A8MUK1 whole entry, looked up): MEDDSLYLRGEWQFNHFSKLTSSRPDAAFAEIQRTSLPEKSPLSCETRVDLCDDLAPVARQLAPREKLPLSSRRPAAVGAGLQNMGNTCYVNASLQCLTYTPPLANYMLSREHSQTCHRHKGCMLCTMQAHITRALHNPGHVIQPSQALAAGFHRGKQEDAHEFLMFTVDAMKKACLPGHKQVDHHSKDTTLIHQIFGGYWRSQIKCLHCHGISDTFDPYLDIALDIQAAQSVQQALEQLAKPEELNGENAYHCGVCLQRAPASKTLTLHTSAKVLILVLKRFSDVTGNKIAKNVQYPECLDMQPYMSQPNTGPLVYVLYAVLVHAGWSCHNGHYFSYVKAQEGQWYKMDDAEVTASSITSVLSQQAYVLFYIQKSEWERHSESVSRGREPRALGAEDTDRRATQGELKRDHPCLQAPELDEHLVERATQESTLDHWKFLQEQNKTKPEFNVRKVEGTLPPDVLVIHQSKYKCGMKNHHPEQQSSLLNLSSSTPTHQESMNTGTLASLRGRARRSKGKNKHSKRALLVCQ
# assay.comment: ubiquitin-specific protease 17 DUB inhibitors, concentration-effect assay, cell-free, verification of initial screening actives (AID 1645864)
# reported.conditions: purified USP17, ubiquitin-rhodamine cleavage fluorescence, 3 h
Active and inactive are the calls of the source.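 Rule for the calls: active = maximal inhibition of USP17 at or above 30% in the confirmation dose-response, a value not among the printed readouts; inactive = the rest.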
Possible outcomes: active, inactive

{"compound": "O=C(O)COc1ccccc1/C=C1\\CCc2c1nc1ccccc1c2C(=O)O", "qualitative.label": "inactive"}
{"compound": "O=C(CSc1nnc(CNC(=O)c2ccccc2F)o1)Nc1ccc(OC(F)(F)F)cc1", "qualitative.label": "active"}
{"compound": "COc1ccc(NC(=O)C2c3ccccc3C(=O)N(C3CCCC3)C2c2cccs2)cc1OC (stereo not given)", "qualitative.label": "active"}
{"compound": "CCOc1ccccc1-c1nc(-c2nnn(Cc3ccccc3)c2C)no1", "qualitative.label": "inactive"}
{"compound": "CCN1C(SCc2ccc(F)cc2)=NS(=O)(=O)c2ccccc21", "qualitative.label": "inactive"}
